target: Carnitine O-palmitoyltransferase 1, liver isoform (Rattus norvegicus) (UniProt P32198); test: Maximal inhibition of rat CPT1A
Sequence (P32198 whole entry, looked up, canonical isoform): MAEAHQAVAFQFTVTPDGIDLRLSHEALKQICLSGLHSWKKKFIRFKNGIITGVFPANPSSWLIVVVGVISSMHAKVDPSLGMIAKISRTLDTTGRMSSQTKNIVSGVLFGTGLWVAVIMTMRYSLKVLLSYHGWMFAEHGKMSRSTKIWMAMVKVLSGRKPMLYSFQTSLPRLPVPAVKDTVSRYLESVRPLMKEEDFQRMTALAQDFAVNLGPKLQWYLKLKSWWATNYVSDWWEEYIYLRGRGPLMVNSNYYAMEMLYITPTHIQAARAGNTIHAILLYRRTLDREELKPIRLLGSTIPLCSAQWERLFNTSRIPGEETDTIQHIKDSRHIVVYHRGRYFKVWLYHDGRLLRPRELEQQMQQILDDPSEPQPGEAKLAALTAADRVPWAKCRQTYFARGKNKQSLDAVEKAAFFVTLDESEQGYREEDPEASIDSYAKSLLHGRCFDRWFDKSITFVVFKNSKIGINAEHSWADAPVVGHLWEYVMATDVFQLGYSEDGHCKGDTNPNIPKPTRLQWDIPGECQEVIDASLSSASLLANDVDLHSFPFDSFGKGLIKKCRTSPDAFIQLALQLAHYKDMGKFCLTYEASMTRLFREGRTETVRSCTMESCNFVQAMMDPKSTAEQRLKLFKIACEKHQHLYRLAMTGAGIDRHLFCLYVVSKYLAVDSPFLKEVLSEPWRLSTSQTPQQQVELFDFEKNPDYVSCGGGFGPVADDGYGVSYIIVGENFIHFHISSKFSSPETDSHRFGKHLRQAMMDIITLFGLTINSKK
API: label(entry) gives 1 if the entry's IC50 is strictly smaller than 100 nM; on equality or larger values it gives 0.

Consider the worked cases shown below.
compound | classification
COc1ccc(C)cc1S(=O)(=O)N1CCCc2ccc(C(=O)Nc3ccc(CC(=O)O)cc3)cc21 | 0
O=C(NCc1cccs1)c1nn(Cc2cccc(C(F)(F)F)c2)c2ccccc12 | 0
COc1ccc(Cl)cc1S(=O)(=O)N1CCc2ccc(C(=O)Nc3ccc(C(=O)O)cc3)cc21 | 1
C[N+](C)(C)C[C@H](N)CC(=O)[O-] | 0
O=C(COc1ccccc1)N1CCCC[C@@H]1c1nc(-c2ccccn2)cs1 | 0

Exercise: # TODO verify IC50 < 100 nM strictly for this compound: CCCCCCCCCCCCCCNC(=O)N[C@H](CC(=O)[O-])C[N+](C)(C)C
Solution: 0

Exercise: Hello, is IC50 of the following compound strictly smaller than 100 nM? COc1ccc(Cl)cc1S(=O)(=O)N1CC(C(=O)O)Oc2ccc(C(=O)Nc3cccc(F)c3)cc21 (configuration not stated)
Solution: 1
